assayed system: human GPR40 (Homo sapiens, UniProt O14842)
Sequence (O14842 whole entry): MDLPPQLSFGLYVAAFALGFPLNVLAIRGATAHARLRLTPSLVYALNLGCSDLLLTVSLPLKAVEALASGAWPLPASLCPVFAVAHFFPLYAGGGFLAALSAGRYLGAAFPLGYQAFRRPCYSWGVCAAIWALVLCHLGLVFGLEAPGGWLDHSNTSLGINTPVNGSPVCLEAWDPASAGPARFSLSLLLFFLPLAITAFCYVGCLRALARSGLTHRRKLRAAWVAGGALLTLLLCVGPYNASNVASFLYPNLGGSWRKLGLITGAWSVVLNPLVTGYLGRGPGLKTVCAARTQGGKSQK
procedure text: GPR40 Calcium Flux Assay
stated conditions: transfected HEK293 cells stably expressing human GPR40; calcium-sensitive fluorescent dye; read-out: hGPR40 Ca^2+ Assay EC50
Consider the following compounds; for each one, report its pEC50.
FYI, pEC50 means -log10 of a concentration in mol per litre.

## Task State, for human GPR40 (Homo sapiens, UniProt O14842), measured pEC50 of the compound listed here: `COc1ccc(F)c(-c2noc(CCc3cccc([C@@H](CC(=O)O)C4CC4)c3)c2C2CC2)c1`
## Result 7.60

## Task State, for human GPR40 (Homo sapiens, UniProt O14842), measured pEC50 of the compound listed here: `COc1ccc(F)c(-c2noc(COc3cccc([C@@H](CC(=O)O)C4CC4)c3)c2C2=CCCC2(C)C)c1`
## Result 9.00

## Task State, for human GPR40 (Homo sapiens, UniProt O14842), measured pEC50 of the compound listed here: `COc1ccc(F)c(-c2noc(/C=C\c3cccc([C@@H](CC(=O)O)C4CC4)c3)c2C2=CCCC2(C)C)c1`
## Result 6.60

## Task State, for human GPR40 (Homo sapiens, UniProt O14842), measured pEC50 of the compound listed here: `COc1ccc(F)c(-c2noc(/C=C/c3cccc([C@@H](CC(=O)O)C4CC4)c3)c2C2=CCCC2(C)C)c1`
## Result 7.64

## Task State, for human GPR40 (Homo sapiens, UniProt O14842), measured pEC50 of the compound listed here: COc1ccc(F)c(-c2noc(COc3cc(C(CC(=O)O)C4CC4)ccn3)c2C2=CCCC2(C)C)c1 (centres unmarked)
## Result 9.00

## Task State, for human GPR40 (Homo sapiens, UniProt O14842), measured pEC50 of the compound listed here: COc1ccc(F)c(-c2noc(/C=C/c3cccc(C(CC(=O)O)C4CC4)c3)c2C2CC2)c1 (stereo in doubt)
## Result 7.59

## Task State, for human GPR40 (Homo sapiens, UniProt O14842), measured pEC50 of the compound listed here: COc1ccc(F)c(-c2noc(COc3cc(C(CC(=O)O)C4CC4)c(Cl)cn3)c2C2=CCCC2(C)C)c1 (centres unmarked)
## Result 7.66

## Task State, for human GPR40 (Homo sapiens, UniProt O14842), measured pEC50 of the compound listed here: COc1ccc(F)c(-c2noc(CCc3cccc([C@@H](CC(=O)O)C4CC4)c3)c2C2CCCC2(C)C)c1 (some centres unmarked)
## Result 9.00
